Test system: ATP;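 further: ATP exposure 15 min at 22 °C before imaging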
Test: switch fluorescence ratio, 500 uM ATP over buffer (Cy3 cluster intensity, sum of 5 cycles each) (fold (ratio)); higher = stronger signal-on switching upon ATP binding; sequences stand for … in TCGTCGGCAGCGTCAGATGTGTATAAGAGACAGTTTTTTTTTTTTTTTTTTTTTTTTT…TC
Setup conditions: aptamer strand: ATP DNA aptamer (quencher-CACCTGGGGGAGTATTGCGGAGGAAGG + anchor), 100 nM annealed; ATP concentration: 500 uM
Below, each entry is listed alongside its reported switch fluorescence ratio.
Could you keep your reply to the number by itself?

Worked set:
AGTTGGAAAG: 0.977
GATACATGCT: 0.979

Q: // switch fluorescence ratio lookup, key: `CGGAAGTTCT`
Ans: 0.993

Q: // switch fluorescence ratio lookup, key: `GGTATGTGTT`
Ans: 0.987

Q: // switch fluorescence ratio lookup, key: `GGGGGCTGCA`
Ans: 1.02

These entries and their values trace back to the supplement of paper PMC10126150.
